Values were extracted from ChEMBL document CHEMBL1275276.

System: Candida albicans
Experiment: Binding affinity to Candida albicans CaMdr1p expressed in yeast AD1-8u
Active and inactive are the calls of the source. The rule behind the calls is not given here.
Outcomes: active, inactive

| compound | systemTested | labelClass |
| --- | --- | --- |
| c1ccc(C(c2ccccc2)(c2ccccc2)c2ncc[nH]2)cc1 | Candida albicans | inactive |
| C=C[C@H]1CN2CC[C@H]1C[C@@H]2[C@@H](O)c1ccnc2ccc(OC)cc12 | Candida albicans | active |
| CN(C/C=C/C#CC(C)(C)C)Cc1cccc2ccccc12 | Candida albicans | inactive |
| COc1cc2c(c(OC)c1OC)-c1ccc(OC)c(=O)cc1[C@@H](NC(C)=O)CC2 | Candida albicans | inactive |
| O=[N+]([O-])c1cc[n+]([O-])c2ccccc12 [4-NITROQUINOLINE-1-OXIDE] | Candida albicans | active |
| O=c1c(O)c(-c2ccc(O)c(O)c2)oc2cc(O)cc(O)c12 | Candida albicans | inactive |
